Reported EC50 values are given for each entry in this list.
Biological target: T1, human tissue factor (TF), membrane-bound on cells (human, UniProt P13726 33-295)
T1 construct: whole, on cells; also called cellular TF
Test: FACS, MDA-MB-231 cells
Give the quantity in nM, number only.

The following binders have reported results that may help.
binder: anti-TF HuMab 092-A09 (antibody, V domains shown, Human monoclonal antibody from HuMab mice) VH: EVQLLESGGGLVQPGGSLRLSCAASGFTFNNYAMSWVRQAPGKGLEWVSSISGSGGRTYYADSVKGRFTISRDNSKNTLFLQMNSLRAEDTAVYYCAKTPWGYYFDYWGQGTLVTVSS VL: DIQMTQSPSSLSASVGDRVTITCRASQGISSRLAWYQQKPEKAPKSLIYAASSLQSGVPSRFSGSGSGTDFTLTISSLQPEDFATYYCQQYNSYPYTFGQGTKLEIK
result-unit: nM
test-result: 0.53

binder: anti-TF HuMab 109 (antibody, V domains shown, Human monoclonal antibody from HuMab mice) VH: QVQLVESGGGVVQPGRSLRLSCPASGFTFSIYAMHWVRQAPGKGLEWVAVVSNDGYNKYYADSVKGRFTISRDNSKDTLYLQMNSLRAEDTAVYYCARDGQLGRGYFDYWGQGTLVTVSS VL: EIVLTQSPATLSLSPGERAILSCRASQSVSSYLAWYQQKPGQAPRLLIYDASNRATGIPARFSGSGSGTDFTLTISSLEPEDFAVYYCQQRSNWPLTFGGGTKVEIK
result-unit: nM
test-result: 2.16

Please find the next binder below.
// recorded EC50 for anti-TF HuMab 003 (antibody, V domains shown, Human monoclonal antibody from HuMab mice; also called HuMab-TF-003) VH: QVQLVQSGAEVKKPGSSVKVSCKAPRGTFSYYTISWVRQAPGQGLEWMGRIIPILGVANYAQKFQGRVTITADKSTSTAYMELSSLRSEDTAVYYCAREGDRRYFDYWGQGTLVTVSS VL: AIQLTQSPSSLSASVGDRVTITCRASQDISSALAWYQQKPGKAPKLLIYDASILESGVPSRFSGSGSGTDFTLTISSLQPEDFATYYCQQFNSYPLTFGGGTKVEIK : 3.2
